# System: SF-295 CNS
# procedure details: NCI-60 one-dose screen, 48 h (100 = growth as untreated, 0 = no growth, -100 = all killed)
# condition details: 10 µM unless noted
This is part of a sample that, as a whole, favours compounds with a hit. Of some 83,000 tested, about 20% had one in any assay.
measured parameter: growth (%)

> print(dat)
                                    compound  target.entity  measured.parameter  unit.name  reported.measurement
 1      N/C(=N\C(N)=N\c1nc2ccccc2s1)c1cnccn1     SF-295 CNS              growth          %                    28
 2  CCCCCN1C=C/C(=C\C(=O)N(C)c2ccc(Oc3ccccc3)cc2)c2ccccc21     SF-295 CNS              growth          %                  81.1
 3                     COCc1cnccc1NC1CCCCCC1     SF-295 CNS              growth          %                   101
 4  COc1cccc(-c2nc3occn3c2-c2ccnc(NCCCNS(=O)(=O)c3ccc(C(F)(F)F)cc3)n2)c1     SF-295 CNS              growth          %                  95.2
 5  COc1cc2c(c(O)c1Cl)C(=O)c1c(O)cc(C[C@H](C)O)cc1[C@H]2[C@H]1c2cc(C[C@H](C)O)cc(O)c2C(=O)c2c1cc(OC)c(Cl)c2O     SF-295 CNS              growth          %                 -14.6
 6  Cn1cc(-c2nc(-c3c[nH]c4c(Cl)nccc34)cs2)c2cc(F)ccc21     SF-295 CNS              growth          %                   105
 7    O=C(O)c1ccc2c(c1)C(=O)N(Cc1ccccc1)C2=O     SF-295 CNS              growth          %                    95
 8  CC(=O)[C@@H]1CC[C@]2(CO)CC[C@]3(C)[C@H](CC[C@@H]4[C@@]5(C)CCCNC(C)(C)[C@@H]5CC[C@]43C)[C@@H]12     SF-295 CNS              growth          %                   105
 9  CN1CCN(C(=O)[C@]23CCC(C)(C)C[C@H]2C2=CC[C@@H]4[C@@]5(C)C/C(=C/c6cccnc6)C(=O)C(C)(C)[C@@H]5CC[C@@]4(C)[C@]2(C)CC3)CC1     SF-295 CNS              growth          %                    74
10  COc1cc(NC(C)CCCNC(=O)CCC(=O)NCCCNCCCCCCCCNCCCNC(=O)CCC(=O)NCCCC(C)Nc2cc(OC)cc3cccnc23)c2ncccc2c1 (stereo unspecified)     SF-295 CNS              growth          %                  85.5
11         CCN1Cc2nc3sc(C)c(C)c3c(=O)n2C=C1C     SF-295 CNS              growth          %                    81
12       N#Cc1c(NC(=O)NCc2ccccc2)sc2c1CCCCC2     SF-295 CNS              growth          %                  19.9
13  O=C(/C=C/c1ccc(F)cc1)c1ccc(NC(=O)N2CCN(c3cc4c(cc3F)c(=O)c(C(=O)O)cn4C3CC3)CC2)cc1     SF-295 CNS              growth          %                  98.7
14  CC(=O)[C@@H]1CC[C@]2(C(N)=O)CC[C@]3(C)[C@H](CC[C@@H]4[C@@]5(C)CCCNC(C)(C)[C@@H]5CC[C@]43C)[C@@H]12     SF-295 CNS              growth          %                  86.6
15  O=C(Nc1ccccc1)Nc1ccc2cc3ccc(NC(=O)Nc4ccccc4)cc3nc2c1     SF-295 CNS              growth          %                  17.8
16  CC1(C)c2[nH]c3ccccc3c2C[C@]2(C)[C@H]3C(=O)C=C4[C@@H]5C[C@@](C)(C(N)=O)CC[C@]5(C)CC[C@@]4(C)[C@]3(C)CC[C@@H]12     SF-295 CNS              growth          %                  82.9
17  O=C(C1CCC1)N1N=C(c2ccc(-n3ccc(C(F)(F)F)n3)cc2)CC1c1ccc[nH]1 (stereo unspecified)     SF-295 CNS              growth          %                    95
18  O=C1c2c(c3c4cccc(F)c4[nH]c3c3ccc4ccccc4c23)C(=O)N1O     SF-295 CNS              growth          %                  47.9
19  N#C/C(=C\c1ccc([N+](=O)[O-])s1)c1nc2cc(Br)ccc2s1     SF-295 CNS              growth          %                  65.7
20  Cc1ccc(-n2nc3c(c(C#N)c2=O)CC(c2ccccc2[N+](=O)[O-])C([N+](=O)[O-])=C3O)cc1 (stereo unspecified)     SF-295 CNS              growth          %                   105
21  O=C(/C(=C\c1ccc([N+](=O)[O-])cc1)S(=O)Cc1ccc(Cl)cc1)c1ccc(Cl)cc1 (stereo unspecified)     SF-295 CNS              growth          %                  90.5
22  c1ccc2c(-c3c[nH]c4ccccc34)c3c(cc2c1)[nH]c1ccccc13     SF-295 CNS              growth          %                  85.4
23  C/C(=N\NC(=O)CSc1nc2ccccc2c(=O)n1CCc1ccc(S(N)(=O)=O)cc1)c1ccccn1     SF-295 CNS              growth          %                  13.4
24  O=C1Nc2cc(-c3ccc(NC(=O)c4ccccc4)cc3)ccc2/C1=C/c1ccc[nH]1     SF-295 CNS              growth          %                   106
25  O=C(CCN1CCCC1)Nc1ccc2c(NCc3ccccc3)c3ccccc3nc2c1     SF-295 CNS              growth          %                  15.5
26  O=S(=O)(NCCNc1nccc(-c2c(-c3cccc(F)c3)nc3sccn23)n1)c1ccccc1     SF-295 CNS              growth          %                  47.4
27    COc1ccc(C(=O)c2cc(OC)c(OC)c(OC)c2)cc1O     SF-295 CNS              growth          %                 -8.79
28  COc1cc2nc(-c3ccc(Cl)cc3)cc(OCCCN3CCCC3)c2cc1OC     SF-295 CNS              growth          %                   -17
29  Cc1cc2nc3c4ccc(Br)cc4n(CCN(C)C)c3nc2cc1C     SF-295 CNS              growth          %                  14.8
30  COc1cc2nc(-c3ccc(Cl)cc3)cc(OCCCN3CCC(O)CC3)c2cc1OC     SF-295 CNS              growth          %                 -10.5
31  COc1cc(-c2n/c(=C\c3c(O)[nH]c4ccc(Cl)cc34)cc3c2=Nc2ccccc2-3)ccc1F     SF-295 CNS              growth          %                  43.1
32  CCOc1ccc(/C=N/Nc2cc(C)nc3ccc(Br)cc23)cc1     SF-295 CNS              growth          %                  82.7
33  Cc1nn(-c2ccccc2)c(Cl)c1/C=N\N=c1/sc2ccccc2n1C     SF-295 CNS              growth          %                   109
34  O=S(=O)(NCCNc1nccc(-c2c(-c3cccc(F)c3)nc3sccn23)n1)c1ccc(Cl)cc1     SF-295 CNS              growth          %                  63.7
35  CCCCCCOc1ccc(/C=N/Nc2cc(C)nc3ccc(Cl)cc23)cc1     SF-295 CNS              growth          %                 -84.3
36  COc1cc(C2=NN(C(C)=O)C(c3cc(OC)c(OC)c(OC)c3)C2)ccc1O (stereo unspecified)     SF-295 CNS              growth          %                 -55.6

Origin of measurements: PubChem BioAssay (NCI)
